Assay: Cytotoxicity against human L02 cells assessed as cell survival rate at 100 uM by MTT assay
Format: toxicity, cell-based
Conditions: read-out: Survival
parameter-measured: viability at 100 µM (%)
I only need the number, in %, no unit after it.

Check out these entries, answers already filled in.
[[record]]
molecule = "C=CCc1cc(-c2cc(CC=C)c3oc(SCc4nnc(-c5cccc(C)c5)o4)nc3c2)c2oc(SCc3nnc(-c4cccc(C)c4)o3)nc2c1"
parameter_measured = "viability at 100 µM"
numeric_result = 80

[[record]]
molecule = "C=CCc1cc(CSc2nnc(-c3cccnc3)o2)c(O)c(-c2ccc(O)c(CC=C)c2)c1"
parameter_measured = "viability at 100 µM"
numeric_result = 80


Note: attention shifts to another entry.
Req: // lookup viability at 100 µM for `C=CCc1cc(CSc2nnc(-c3ccccc3)o2)c(O)c(-c2ccc(O)c(CC=C)c2)c1`
Resp: 80

All values here come from ChEMBL document CHEMBL5126577.
